Entries and their measured remaining at 1 h follow.
- assay-text: Stability against liver homogenate of mice
- Type: in vitro ADME, mice (ICB strain)
- measurement-context: pH 7.2; mouse liver homogenate supernatant, 37° C., contact 60 minutes; read-out: Residual Intact Compound Rate
Value expressed in %; do not type the unit.

(Q) Given CCC1OC(=O)CC(O)C(C)C(OC2OC(C)C(OC3CC(C)(O)C(OS(=O)(=O)Cc4ccccc4)C(C)O3)C(N(C)C)C2O)C(CC=O)CC(C)C(=O)C=CC(C)=CC1COC1OC(C)C(O)C(OC)C1OC (centres unmarked) [Control 4, reference compound] , state its recorded remaining at 1 h.
(A) 0

====

- assay-text: Stability against liver homogenate of mice
- Type: in vitro ADME, mice (ICB strain)
- measurement-context: pH 7.2; mouse liver homogenate supernatant, 37° C., contact 60 minutes; read-out: Residual Intact Compound Rate
Item-by-item account of remaining at 1 h
Please respond with the number in % and leave the unit unwritten.

Take a look at these entries with their results.
compound: CCC1OC(=O)CC(O)C(C)C(OC2OC(C)C(OC3CC(C)(O)C(OC(=O)Cc4ccc(OC)cc4)C(C)O3)C(N(C)C)C2O)C(CC=O)CC(C)C(=O)C=CC(C)=CC1COC1OC(C)C(O)C(OC)C1OC (centres unmarked) [Compound 5, 4"-O-(4-Methoxyphenylacetyl)tylosin]
test-readout: remaining at 1 h
reported-measurement: 94
--
compound: CCC1OC(=O)CC(O)C(C)C(OC2OC(C)C(OC3CC(C)(O)C(OC(=O)Cc4ccc(C(C)=O)cc4)C(C)O3)C(N(C)C)C2O)C(CC=O)CC(C)C(=O)C=CC(C)=CC1C (centres unmarked) [Compound 3]
test-readout: remaining at 1 h
reported-measurement: 95

(Q) So what's the measured remaining at 1 h for this one? CCC1OC(=O)CC(O)C(C)C(OC2OC(C)C(OC3CC(C)(O)C(OC(=O)Cc4ccc(C(=O)c5ccccc5)cc4)C(C)O3)C(N(C)C)C2O)C(CC=O)CC(C)C(=O)C=CC(C)=CC1COC1OC(C)C(O)C(OC)C1OC (centres unmarked) [Compound 4, 4"-O-(4-Benzoylphenylacetyl)tylosin]
(A) 82
